The reader will find reported Solubility (limiting) values listed item by item below.
# assay.summary: limiting solubility in liquid-crystalline mixtures at 20° C.
# Format: physicochemical
# condition.parameters: ZK-807, 20° C.
Number only, in mass %; omit the unit.

Here's what some known entries look like.
- compound: "CCCCc1cc(NC(=O)C2CCC(CCCC)CC2)c2c(c1OC(=O)c1ccc(C3CCC(CCCC)CC3)cc1)C(=O)c1c(OC(=O)c3ccc(C4CCC(CCCC)CC4)cc3)c(CCCC)cc(NC(=O)C3CCC(CCCC)CC3)c1C2=O (centres unmarked)"
  Solubility (limiting), mass %: 10.8
- compound: "CCCCc1cc(NC(=O)c2ccc(C3CCC(CCCC)CC3)cc2)c2c(c1O)C(=O)c1c(OC(=O)CCC)c(CCCC)cc(NC(=O)c3ccc(C4CCC(CCCC)CC4)cc3)c1C2=O (centres unmarked)"
  Solubility (limiting), mass %: 1.7
- compound: "CCCCc1ccc(C(=O)Nc2cc(CCCC)c(O)c3c2C(=O)c2c(NC(=O)c4ccc(CCCC)cc4)cc(CCCC)c(OC(=O)c4ccc(CCCC)cc4)c2C3=O)cc1"
  Solubility (limiting), mass %: 2.7
- compound: "CCCCc1ccc(C(=O)Nc2ccc(OC(=O)c3ccc(CCCC)cc3)c3c2C(=O)c2c(NC(=O)c4ccc(CCCC)cc4)cc(C)c(OC(=O)c4ccc(CCCC)cc4)c2C3=O)cc1"
  Solubility (limiting), mass %: 5.0

Consider the compound CCCCc1ccc(C(=O)Nc2cc(CCCC)c(NC(=O)c3ccc(CCCC)cc3)c3c2C(=O)c2ccccc2C3=O)cc1 and give its recorded Solubility (limiting).
4.0
